Molecular target: human peroxisome proliferator-activated receptor (PPAR) α (Homo sapiens, UniProt Q07869)
Sequence (Q07869 239-466 limits assumed): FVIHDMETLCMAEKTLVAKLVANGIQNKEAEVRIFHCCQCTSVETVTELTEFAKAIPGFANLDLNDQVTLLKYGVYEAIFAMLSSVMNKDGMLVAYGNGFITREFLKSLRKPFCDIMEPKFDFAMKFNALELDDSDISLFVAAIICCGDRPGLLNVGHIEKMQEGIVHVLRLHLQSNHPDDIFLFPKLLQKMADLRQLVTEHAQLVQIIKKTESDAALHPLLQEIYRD
Experiment: Test of transcriptional activation on human PPARα (luciferase reporter, transfected CHO cells)
Details: CHO cells cotransfected with yeast DNA-binding domain/human PPARα ligand-binding domain fusion and reporter plasmid; luciferase after 24 hours, corrected with Renilla internal standard
parameter measured: EC50

The examples below pair each entry with its known result.
molecule	test system	EC50
CC[C@@H](Cc1ccc(OC)c(C(=O)NCc2ccc(Oc3cc(F)cc(F)c3)cc2)c1)C(=O)O [Example 10]	human peroxisome proliferator-activated receptor (PPAR) α (Homo sapiens, UniProt Q07869)	2.9 nM
CC[C@@H](Cc1ccc(OC)c(C(=O)NCc2ccc(Oc3ccc(F)c(F)c3)cc2)c1)C(=O)O [Example 9]	human peroxisome proliferator-activated receptor (PPAR) α (Homo sapiens, UniProt Q07869)	1.6 nM
CCCCC/C=C\C/C=C\C=C\[C@@H](O)C/C=C\CCCC(=O)O [(8S)-HETE, reference compound]	human peroxisome proliferator-activated receptor (PPAR) α (Homo sapiens, UniProt Q07869)	1300 nM

Attention now shifts to the item below.
Note to self: EC50 of CC[C@@H](Cc1ccc(OC)c(C(=O)NCc2ccc(Oc3cc(F)c(F)c(F)c3)cc2)c1)C(=O)OC [Example 16] with human peroxisome proliferator-activated receptor (PPAR) α (Homo sapiens, UniProt Q07869) was 2.3 nM
